Kindly state log10 EC50 for each of the entries shown.
Biological target: 5-HT2A (Homo sapiens, UniProt P28223)
Test: NanoBiT miniGαq recruitment assay at 5-HT2A
Details: miniGαq EC50 (nM) (95% CI), LSD as reference agonist, 2 h AUC
Sequence (P28223 whole entry): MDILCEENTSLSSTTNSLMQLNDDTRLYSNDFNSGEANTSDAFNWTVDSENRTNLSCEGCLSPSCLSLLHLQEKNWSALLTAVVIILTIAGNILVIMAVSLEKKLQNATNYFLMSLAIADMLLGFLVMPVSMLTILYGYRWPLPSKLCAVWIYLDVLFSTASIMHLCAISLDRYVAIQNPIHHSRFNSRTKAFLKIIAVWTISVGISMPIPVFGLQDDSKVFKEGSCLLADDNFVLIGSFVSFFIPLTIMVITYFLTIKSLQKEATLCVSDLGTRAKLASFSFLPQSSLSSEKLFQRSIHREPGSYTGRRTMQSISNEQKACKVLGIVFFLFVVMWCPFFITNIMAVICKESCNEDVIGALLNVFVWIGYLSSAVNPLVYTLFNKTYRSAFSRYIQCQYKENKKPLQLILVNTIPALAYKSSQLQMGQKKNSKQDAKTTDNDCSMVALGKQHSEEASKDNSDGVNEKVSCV
Recorded EC50 (log10, nM)

Check out these entries, answers already filled in.
| compound | target.desc | log10 EC50 |
| --- | --- | --- |
| COc1cc([N+](=O)[O-])c(OC)cc1CCNCc1cccc2c1OCO2.Cl [25N-NBMD (2h)] | 5-HT2A (Homo sapiens, UniProt P28223) | 0.97 |
| COc1cc([N+](=O)[O-])c(OC)cc1CCNCc1ccccc1F.Cl [25N-NBF (2g)] | 5-HT2A (Homo sapiens, UniProt P28223) | 1.87 |
| COc1cc(CCN)c(OC)cc1C#N.Cl | 5-HT2A (Homo sapiens, UniProt P28223) | 2.70 |

Parameters: items (list). Returns: log10 EC50 for each item.
1. COc1cc([N+](=O)[O-])c(OC)cc1CCN.Cl
2. COc1cc([N+](=O)[O-])c(OC)cc1CCNCc1ccccc1OC.Cl [25N-NBOMe (2f)]
3. COc1cc(SC)c(OC)cc1CCN.Cl
4. CCCSc1cc(OC)c(CC(C)N)cc1OC.Cl (stereo not shown)

Outgoing:
1. 1.97
2. 0.40
3. 1.57
4. 0.88

----------
Target: 5-HT2A (Homo sapiens, UniProt P28223)
Experiment: NanoBiT βarr2 recruitment assay at 5-HT2A
Details: β-arrestin2 EC50 (nM) (95% CI), LSD as reference agonist, 2 h AUC
Sequence (P28223 whole entry): as above
Sequence (P32121 whole entry partner): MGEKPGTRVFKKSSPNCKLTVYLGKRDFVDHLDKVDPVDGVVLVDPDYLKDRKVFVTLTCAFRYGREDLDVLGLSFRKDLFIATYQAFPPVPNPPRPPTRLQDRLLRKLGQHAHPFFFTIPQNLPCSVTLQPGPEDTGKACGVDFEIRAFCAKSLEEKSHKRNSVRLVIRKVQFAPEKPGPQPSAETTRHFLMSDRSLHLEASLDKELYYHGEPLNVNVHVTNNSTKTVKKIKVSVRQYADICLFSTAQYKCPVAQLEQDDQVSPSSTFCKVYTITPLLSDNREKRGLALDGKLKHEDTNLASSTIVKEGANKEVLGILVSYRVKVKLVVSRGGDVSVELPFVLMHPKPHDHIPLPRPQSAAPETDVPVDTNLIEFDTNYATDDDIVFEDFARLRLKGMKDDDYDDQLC
# strict inequality: EC50 < 5 nM yields True, everything else yields False

# example entries with known answers
| molecule | class.assignment |
| --- | --- |
| COc1cc(SC)c(OC)cc1CC(C)N.Cl (centres unmarked) | False |
| COc1cc([N+](=O)[O-])c(OC)cc1CCNCc1ccccc1O.Cl [25N-NBOH (2e)] | True |
| COc1cc([N+](=O)[O-])c(OC)cc1CCNCc1cccc2c1OCO2.Cl [25N-NBMD (2h)] | True |

Incoming: For this molecule, is EC50 lower than 5 nM? `CCCc1cc(OC)c(CCN)cc1OC.Cl`
Outgoing: False

Incoming: For this molecule, is EC50 lower than 5 nM? COc1cc([N+](=O)[O-])c(OC)cc1CCNCc1ccccc1OC.Cl [25N-NBOMe (2f)]
Outgoing: True

Incoming: For this molecule, is EC50 lower than 5 nM? `CCOCc1cc(OC)c(CCN)cc1OC.Cl`
Outgoing: False

Incoming: For this molecule, is EC50 lower than 5 nM? COc1cc([N+](=O)[O-])c(OC)cc1CCNCc1ccccc1F.Cl [25N-NBF (2g)]
Outgoing: False

Incoming: For this molecule, is EC50 lower than 5 nM? `CCCSc1cc(OC)c(CCNCc2ccccc2O)cc1OC.Cl`
Outgoing: False

Incoming: For this molecule, is EC50 lower than 5 nM? `COc1cc(SC)c(OC)cc1CCN.Cl`
Outgoing: False

----------
Kindly state EC50 for each of the entries shown.
Biological target: 5-HT2A (Homo sapiens, UniProt P28223)
Test: NanoBiT βarr2 recruitment assay at 5-HT2A
Conditions: β-arrestin2 EC50 (nM) (95% CI), LSD as reference agonist, 2 h AUC
Answers are plain numbers, in nM.

Check out these entries, answers already filled in.
| molecule | EC50 [nM] |
| --- | --- |
| CCCSc1cc(OC)c(CCN)cc1OC.Cl | 4.99 |
| COc1cc([N+](=O)[O-])c(OC)cc1CCN.Cl | 32.2 |

Parameters: items (list). Returns: EC50 for each item.
1. COc1cc(SC)c(OC)cc1CCNCc1ccccc1O.Cl [25T-NBOH (2a)]
2. COc1cc(CCN)c(OC)cc1C#N.Cl
3. CCCSc1cc(OC)c(CCNCc2ccccc2OC)cc1OC.Cl

Outgoing:
1. 1.94
2. 174
3. 7.42

Parameters: items (list). Returns: EC50 for each item.
1. COc1cc(CCN)c(OC)cc1C.Cl
2. COc1cc(SC)c(OC)cc1CCNCc1ccccc1OC.Cl [25T-NBOMe (2b)]
3. CCCSc1cc(OC)c(CC(C)N)cc1OC.Cl (centres unmarked)

Outgoing:
1. 16.4
2. 2.05
3. 2.18

Hey, just so you know, these numbers are from paper PMC10401645.
